B1: Caulobacter ParB omega fusion; a variant is named by its letters at X, in order, B8GW30 (parent)
chain: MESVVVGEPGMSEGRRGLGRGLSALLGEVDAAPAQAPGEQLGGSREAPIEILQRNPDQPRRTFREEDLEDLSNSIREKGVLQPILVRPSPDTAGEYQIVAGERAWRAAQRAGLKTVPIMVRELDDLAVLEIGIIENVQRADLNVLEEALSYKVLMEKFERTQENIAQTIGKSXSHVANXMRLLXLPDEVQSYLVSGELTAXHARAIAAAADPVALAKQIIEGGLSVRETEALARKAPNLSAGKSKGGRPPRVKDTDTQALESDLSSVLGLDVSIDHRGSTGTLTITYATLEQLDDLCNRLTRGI

# Variants of: B1
# Protocol details: one-hybrid fitness for binding NBS DNA (the Noc-binding site; scaled: cognate 1, non-cognate 0); higher = stronger binding
# Experimental parameters: with NBS DNA site
In all, about 81,000 sequences were measured (“one-hybrid fitness for binding NBS DNA”: median about -0.1, highest 2% from about 0.36 on). This excerpt belongs to a sample that is enriched for the highest values.
Label scheme for one-hybrid fitness for binding NBS DNA: lower than 0.3 is Not met, 0.3 and above is Met.

{"Mut": "DTKT", "Class label": "Not met"}
{"Mut": "VNHL", "Class label": "Not met"}
{"Mut": "QMYK", "Class label": "Not met"}
{"Mut": "RERT", "Class label": "Not met"}
{"Mut": "QAYK", "Class label": "Not met"}
{"Mut": "RCTA", "Class label": "Not met"}
{"Mut": "RRSA", "Class label": "Met"}
{"Mut": "RQMP", "Class label": "Not met"}
{"Mut": "RLSH", "Class label": "Not met"}
{"Mut": "RSYA", "Class label": "Not met"}
{"Mut": "RIYT", "Class label": "Met"}
{"Mut": "RQMD", "Class label": "Not met"}
{"Mut": "QADK", "Class label": "Not met"}
{"Mut": "RRMQ", "Class label": "Not met"}
{"Mut": "QTKT", "Class label": "Met"}
{"Mut": "RIMR", "Class label": "Met"}
{"Mut": "RPRT", "Class label": "Not met"}
{"Mut": "RART", "Class label": "Met"}
{"Mut": "YFNT", "Class label": "Not met"}
{"Mut": "QSRK", "Class label": "Met"}
{"Mut": "SGPG", "Class label": "Not met"}
{"Mut": "RSMR", "Class label": "Met"}
{"Mut": "RAWT", "Class label": "Not met"}
{"Mut": "PPRC", "Class label": "Not met"}
{"Mut": "RRMF", "Class label": "Not met"}
{"Mut": "QHYA", "Class label": "Not met"}
{"Mut": "QTVT", "Class label": "Met"}
{"Mut": "RCSA", "Class label": "Not met"}
{"Mut": "QCRK", "Class label": "Met"}
{"Mut": "TPEF", "Class label": "Not met"}
{"Mut": "LKPK", "Class label": "Not met"}
{"Mut": "RSSA", "Class label": "Not met"}
{"Mut": "RPGA", "Class label": "Not met"}
{"Mut": "VLYA", "Class label": "Not met"}
{"Mut": "TEMV", "Class label": "Not met"}
{"Mut": "KFTC", "Class label": "Not met"}
{"Mut": "QLRK", "Class label": "Met"}
{"Mut": "QMRA", "Class label": "Met"}
{"Mut": "QSYK", "Class label": "Not met"}
